TARGET ENTITY: T1, human PD-L1-Fc (R&D Systems) chimeric protein (human, UniProt Q9NZQ7 19-239)
T1 construct: Bought reagent; also called rhPD-L1-Fc; huPD-L1; Fc part of the bought chimera not given, not described
T1 sequence (Q9NZQ7 19-239, change not shown): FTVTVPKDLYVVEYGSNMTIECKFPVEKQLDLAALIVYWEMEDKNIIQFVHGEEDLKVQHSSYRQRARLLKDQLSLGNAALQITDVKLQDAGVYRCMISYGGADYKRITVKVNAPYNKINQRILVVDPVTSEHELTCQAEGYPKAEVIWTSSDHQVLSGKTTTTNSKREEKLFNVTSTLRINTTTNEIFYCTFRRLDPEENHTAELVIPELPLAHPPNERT
ASSAY PROTOCOL: binding ELISA on coated human PD-L1 Fc ('Anti-PD-L1 ELISA')
REPORTED METRIC: EC50 (read off the curve)

1. AVA04-251 XT14-Cys (designed binder) single chain: MIPRGLSEAKPATPEIQEIVDKVKPQLEEKTNETYGKLEAVQYKTQVLAREGRQDWVLSTNYYIKVRAGDNKYMHLKVFNGPWVPFPHQQLADRVLTGYQVDKNKDDELTGFAEAAAKEAAAKEAAAKEAAAKEAAAKEAAAKMIPRGLSEAKPATPEIQEIVDKVKPQLEEKTNETYGKLEAVQYKTQVLAREGRQDWVLSTNYYIKVRAGDNKYMHLKVFNGPWVPFPHQQLADRVLTGYQVDKNKDDELTGFAEAAAKEAAAKEAAAKEAAAKEAAAKEAAAKMIPRGLSEAKPATPEIQEIVDKVKPQLEEKTNETYGKLEAVQYKTQVLANFFQRRWPGSTNYYIKVRAGDNKYMHLKVFNGPWKFRNTDRGADRVLTGYQVDKNKDDELTGFC ... ~0.02 nM
